Origin of the recorded values: patent US20250325517A1

- assay-comment: Phase 1 crossover PK study: oral solution fed/fasted vs IV infusion in healthy subjects
- Type: in vivo, human
- settings: human, plasma, po, 3.3 mg/kg, oral 3.3 mg/kg fed state, human plasma; read-out: Cmax Arithmetic Mean
measured-quantity: Cmax (ng/mL)
Express the result in ng/mL but write the number alone.

Incoming: Could you share which Cmax value was measured for `Cn1cc(C2=C(c3coc4ccc(F)cc34)C(=O)NC2=O)c2cc3c(cc21)OCO3` ?
Outgoing: 592

----------
- assay-comment: Quantitative solubility by HPLC in organic solvents and surfactants
- Format: physicochemical
- settings: THF:H2O (90:10) with Labrasol 10% w/v, organic solvent or mixture, thermodynamic from solid; THF:H2O (90:10), Labrasol 10% w/v; read-out: Solubility (n = 2) by HPLC
measured-quantity: solubility
Quote the value and follow it with the unit of measurement.

Incoming: Could you share which solubility value was measured for `Cn1cc(C2=C(c3coc4ccc(F)cc34)C(=O)NC2=O)c2cc3c(cc21)OCO3` ?
Outgoing: 54.8 mg/mL

----------
- assay-comment: Phase 1 crossover PK study: oral solution fed/fasted vs IV infusion in healthy subjects
- Assay type: in vivo, human
- settings: human, plasma, po, 3.3 mg/kg, oral 3.3 mg/kg, Fasted; read-out: Cmax LS Means
measured-quantity: Cmax (ng/mL)
Express the result in ng/mL but write the number alone.

Incoming: Could you share which Cmax value was measured for `Cn1cc(C2=C(c3coc4ccc(F)cc34)C(=O)NC2=O)c2cc3c(cc21)OCO3` ?
Outgoing: 133

----------
- assay-comment: in vivo
- Set-up: species or system Beagle dogs
- settings: male, Beagle, dog, po, 20 mg/kg, Cmax
measured-quantity: Cmax

Incoming: Could you share which Cmax value was measured for `Cn1cc(C2=C(c3coc4ccc(F)cc34)C(=O)NC2=O)c2cc3c(cc21)OCO3` ?
Outgoing: 1670 ng/mL

----------
- assay-comment: Phase 1 crossover PK study: oral solution fed/fasted vs IV infusion in healthy subjects
- Format: in vivo, human
- settings: human, plasma, po, 3.3 mg/kg, oral 3.3 mg/kg fasted state, human plasma; read-out: AUC24 Median
measured-quantity: AUC (ng·h/mL)
Express the result in ng·h/mL but write the number alone.

Incoming: Could you share which AUC value was measured for `Cn1cc(C2=C(c3coc4ccc(F)cc34)C(=O)NC2=O)c2cc3c(cc21)OCO3` ?
Outgoing: 1070

----------
- assay-comment: Phase 1 crossover PK study: oral solution fed/fasted vs IV infusion in healthy subjects
- Type: in vivo, human
- settings: human, plasma, other: oral solution (fed and fasted) and IV infusion, 3.3 mg/kg, human, all 3 treatments; read-out: terminal elimination half-life, majority of subjects
measured-quantity: half-life

Incoming: Could you share which half-life value was measured for `Cn1cc(C2=C(c3coc4ccc(F)cc34)C(=O)NC2=O)c2cc3c(cc21)OCO3` ?
Outgoing: 15 to 25 h

----------
- assay-comment: Phase 1 crossover PK study: oral solution fed/fasted vs IV infusion in healthy subjects
- Type: in vivo, human
- settings: human, plasma, po, 3.3 mg/kg, oral 3.3 mg/kg fasted state, human plasma; read-out: AUC∞ GMean
measured-quantity: AUC(0-inf) (ng·h/mL)
Express the result in ng·h/mL but write the number alone.

Incoming: Could you share which AUC(0-inf) value was measured for Cn1cc(C2=C(c3coc4ccc(F)cc34)C(=O)NC2=O)c2cc3c(cc21)OCO3 [elraglusib] ?
Outgoing: 1480
